The next entries give measured pKi for human A2A receptor (Homo sapiens (Human), UniProt P29274).
pKi: −log10 of the molar value.
measurement.name: pKi

• Nc1nc2c3c(ccc2c2nc([C@@H]4CCCN(CC(F)F)C4)nn12)OC(F)(F)O3 [Example 139] = 8.82
• Nc1nc2c3c(ccc2c2nc(CCNC4CC5(CNC5)C4)nn12)OC(F)(F)O3 [Example 57] = 7.05
• Cc1ncc(N2CCN(CCc3nc4c5ccc6c(c5nc(N)n4n3)OC(F)(F)O6)[C@H](C)C2)s1 [Example 45] = 8.82
• CC(Cc1nc2c3ccc4c(c3nc(N)n2n1)OC(F)(F)O4)N1CCCC(F)(F)C1 (single isomer, unassigned) [Example 96] = 8.39
• Nc1nc2c3c(ccc2c2nc(CCN4CC5COCC(C4)C5(F)F)nn12)OC(F)(F)O3 [Example 32] = 7.40
• CN(C)Cc1nc2c3ccc4c(c3nc(N)n2n1)OC(F)(F)O4 [Example 126] = 7.54
• C[C@@H]1CN(CCc2nc3c4ccc5c(c4nc(N)n3n2)OC(F)(F)O5)C[C@H](C)O1 [Example 44] = 7.35
• Nc1nc2c3c(ccc2c2nc(CCN4CCC5(CCNCC5)C4)nn12)OC(F)(F)O3 [Example 53] = 7.41
